Every entry's value here was drawn from ChEMBL document CHEMBL5291721.

D(3) dopamine receptor (Homo sapiens) measurements of AC50, listed per entry. Also: assay procedure not described here.
Sequence (P35462 whole entry): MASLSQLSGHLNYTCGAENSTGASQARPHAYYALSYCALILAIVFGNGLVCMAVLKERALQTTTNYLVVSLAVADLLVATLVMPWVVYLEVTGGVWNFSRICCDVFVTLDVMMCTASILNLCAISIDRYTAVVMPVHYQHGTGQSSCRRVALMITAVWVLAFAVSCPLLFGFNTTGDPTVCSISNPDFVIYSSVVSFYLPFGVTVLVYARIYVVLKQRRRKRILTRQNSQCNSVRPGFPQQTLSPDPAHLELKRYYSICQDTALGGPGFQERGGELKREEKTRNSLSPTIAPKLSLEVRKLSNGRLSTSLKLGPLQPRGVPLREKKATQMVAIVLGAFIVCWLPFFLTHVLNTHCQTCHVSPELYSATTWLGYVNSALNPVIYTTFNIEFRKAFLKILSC
propertyName: AC50

compound="CNC(=O)Oc1ccc2c(c1)[C@]1(C)CCN(C)[C@@H]1N2C [PHYSOSTIGMINE]" testresult="> 30 µM"
compound="CC(=O)O[C@H]1C[C@H](O[C@H]2[C@@H](O)C[C@H](O[C@H]3[C@@H](O)C[C@H](O[C@H]4CC[C@@]5(C)[C@H](CC[C@@H]6[C@@H]5C[C@@H](O)[C@]5(C)[C@@H](C7=CC(=O)OC7)CC[C@]65O)C4)O[C@@H]3C)O[C@@H]2C)O[C@H](C)[C@H]1O[C@@H]1O[C@H](CO)[C@@H](O)[C@H](O)[C@H]1O [LANATOSIDE C]" testresult="> 30 µM"
compound="N[C@@H](CSSC[C@H](N)C(=O)O)C(=O)O [CYSTINE]" testresult="> 30 µM"
compound="CCOc1cc(N)c(Cl)cc1C(=O)NCC1CN(Cc2ccc(F)cc2)CCO1 (stereo not given) [MOSAPRIDE]" testresult="6.86 µM"
compound="CCC(=O)O[C@@H]1CC(=O)O[C@H](C)C/C=C/C=C/[C@H](OC(C)=O)[C@H](C)C[C@H](CC=O)[C@H](O[C@@H]2O[C@H](C)[C@@H](O[C@H]3C[C@@](C)(OC(C)=O)[C@@H](OC(=O)CC)[C@H](C)O3)[C@H](N(C)C)[C@H]2O)[C@H]1OC [MIOCAMYCIN]" testresult="> 30 µM"

###

Items are presented alongside their recorded AC50.
- assayTarget: 5-hydroxytryptamine receptor 1A (Homo sapiens, UniProt P08908); also: assay procedure not described here
- Sequence (P08908 whole entry): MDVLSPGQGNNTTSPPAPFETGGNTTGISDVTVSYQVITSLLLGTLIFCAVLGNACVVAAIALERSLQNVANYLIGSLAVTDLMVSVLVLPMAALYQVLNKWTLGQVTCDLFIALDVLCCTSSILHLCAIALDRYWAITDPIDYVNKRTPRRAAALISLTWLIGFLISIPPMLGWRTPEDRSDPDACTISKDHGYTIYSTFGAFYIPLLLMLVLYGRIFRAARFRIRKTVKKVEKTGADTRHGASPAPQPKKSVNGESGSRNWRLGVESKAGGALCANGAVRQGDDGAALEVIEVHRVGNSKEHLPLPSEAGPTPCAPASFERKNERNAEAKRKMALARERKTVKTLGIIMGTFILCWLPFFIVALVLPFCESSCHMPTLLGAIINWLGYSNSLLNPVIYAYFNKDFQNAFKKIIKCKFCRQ
- Format: functional, cell-based
propertyName: AC50

compound="NS(=O)(=O)c1cc2c(cc1C(F)(F)F)NC(Cc1ccccc1)NS2(=O)=O (stereo not drawn) [BENDROFLUMETHIAZIDE]" assaytarget="5-hydroxytryptamine receptor 1A (Homo sapiens, UniProt P08908)" propertyname=AC50 testresult="> 10 µM"
compound="CNCCCC1c2ccccc2C=Cc2ccccc21 [PROTRIPTYLINE]" assaytarget="5-hydroxytryptamine receptor 1A (Homo sapiens, UniProt P08908)" propertyname=AC50 testresult="> 10 µM"
compound="[H]/N=C(/N)N[C@H]1[C@H](O)[C@@H](O)[C@H](O[C@@H]2O[C@@H](C)[C@](O)(C=O)[C@H]2O[C@@H]2O[C@@H](CO)[C@H](O)[C@@H](O)[C@@H]2NC)[C@@H](N/C(N)=N\\[H])[C@@H]1O [STREPTOMYCIN]" assaytarget="5-hydroxytryptamine receptor 1A (Homo sapiens, UniProt P08908)" propertyname=AC50 testresult="> 30 µM"
compound="O=c1oc2ccccc2c(O)c1Cc1c(O)c2ccccc2oc1=O [DICUMAROL]" assaytarget="5-hydroxytryptamine receptor 1A (Homo sapiens, UniProt P08908)" propertyname=AC50 testresult="> 10 µM"
compound="Clc1cccc(Cl)c1N=C1NCCN1 [CLONIDINE]" assaytarget="5-hydroxytryptamine receptor 1A (Homo sapiens, UniProt P08908)" propertyname=AC50 testresult="> 10 µM"
compound="CN(C)c1cc(NC(=O)CNC(C)(C)C)c(O)c2c1C[C@H]1C[C@H]3[C@H](N(C)C)C(O)=C(C(N)=O)C(=O)[C@@]3(O)C(O)=C1C2=O [TIGECYCLINE]" assaytarget="5-hydroxytryptamine receptor 1A (Homo sapiens, UniProt P08908)" propertyname=AC50 testresult="> 30 µM"
compound="O=C1NC(=O)C(c2ccccc2)(c2ccccc2)N1 [PHENYTOIN]" assaytarget="5-hydroxytryptamine receptor 1A (Homo sapiens, UniProt P08908)" propertyname=AC50 testresult="> 30 µM"
compound=N#Cc1ccccc1-c1cc(-c2ccccn2)cn(-c2ccccc2)c1=O assaytarget="5-hydroxytryptamine receptor 1A (Homo sapiens, UniProt P08908)" propertyname=AC50 testresult="> 30 µM"
